Data provenance: ChEMBL document CHEMBL3045113

Test system: Erwinia amylovora
Experiment: Antibacterial activity against Erwinia amylovora PMV6076 after 48 hr by broth dilution method
Assay type: functional
Settings: PMV6076, 48 h
Where a SMILES comes first, the peptide text is derived from it. The star is where a group is joined. Tos = Cc1ccc(S(=O)(=O)*)cc1
readoutName: MIC (µM)
Give the value, in units of µM, as a plain number.

Solved entries:
CC[C@H](C)[C@H](NC(=O)[C@H](CCCCN)NC(=O)[C@H](CCCCN)NC(=O)[C@H](Cc1ccccc1)NC(=O)[C@H](CC(C)C)NC(=O)[C@H](CCCCN)NC(=O)[C@@H](N)CCCCN)C(=O)N[C@@H](CC(C)C)C(=O)N[C@@H](CCCCN)C(=O)N[C@@H](Cc1ccccc1)C(=O)N[C@@H](CC(C)C)C(N)=O: 2
CC[C@H](C)[C@H](NC(=O)[C@H](CCCCN)NC(=O)[C@H](CCCCN)NC(=O)[C@H](Cc1ccccc1)NC(=O)[C@H](CC(C)C)NC(=O)[C@H](CCCCN)NC(=O)[C@@H](N)Cc1c[nH]c2ccccc12)C(=O)N[C@@H](CC(C)C)C(=O)N[C@@H](CCCCN)C(=O)N[C@@H](Cc1ccc(O)cc1)C(=O)N[C@@H](CC(C)C)C(N)=O: 2

input: For CC[C@H](C)[C@H](NC(=O)[C@H](CCCCN)NC(=O)[C@H](CCCCN)NC(=O)[C@H](Cc1ccccc1)NC(=O)[C@H](CC(C)C)NC(=O)[C@H](CCCCN)NC(=O)[C@H](Cc1c[nH]c2ccccc12)NS(=O)(=O)c1ccc(C)cc1)C(=O)N[C@@H](CC(C)C)C(=O)N[C@@H](CCCCN)C(=O)N[C@H](C(=O)N[C@@H](CC(C)C)C(N)=O)C(C)C (Tos-WKLFKKILKVL-NH2) , what is its reported MIC?
output: 12

---

Test system: Erwinia amylovora
Test: Antibacterial activity against Erwinia amylovora PMV6076 assessed as growth inhibition after 48 hr
Type: functional
Conditions: PMV6076, 48 h, read-out: ED50 (the source's name)
*1 amine or outer side, *2 acyl side, *3 side chain or, on linkers, in order; H or OH if unused. Where a SMILES comes first, the peptide text is derived from it. [ ]: non-standard residue; d: D form. The star is where a group is joined. X1 = O=C([C@H](Cc1c[nH]c2ccccc12)N(Cc1ccccc1)[*:1])[*:2]; Tos = Cc1ccc(S(=O)(=O)*)cc1; Bz = O=C(c1ccccc1)*
readoutName: EC50 (µM)
All answers are understood in µM, so give the number only.

Below are worked cases with known answers.
CC[C@H](C)[C@H](NC(=O)[C@H](CCCCN)NC(=O)[C@H](CCCCN)NC(=O)[C@H](Cc1ccccc1)NC(=O)[C@H](CC(C)C)NC(=O)[C@H](CCCCN)NC(=O)[C@H](Cc1c[nH]c2ccccc12)NC(=O)c1ccccc1)C(=O)N[C@@H](CC(C)C)C(=O)N[C@@H](CCCCN)C(=O)N[C@H](C(=O)N[C@@H](CC(C)C)C(N)=O)C(C)C (Bz-WKLFKKILKVL-NH2): 15.1
CC[C@H](C)[C@H](NC(=O)[C@H](CCCCN)NC(=O)[C@H](CCCCN)NC(=O)[C@H](Cc1ccccc1)NC(=O)[C@H](CC(C)C)NC(=O)[C@H](CCCCN)NC(=O)[C@H](Cc1c[nH]c2ccccc12)NS(=O)(=O)c1ccc(C)cc1)C(=O)N[C@@H](CC(C)C)C(=O)N[C@@H](CCCCN)C(=O)N[C@H](C(=O)N[C@@H](CC(C)C)C(N)=O)C(C)C (Tos-WKLFKKILKVL-NH2): 11.2

Attention now shifts to the item below.
input: What value of EC50 has been reported for the following compound? CC[C@H](C)[C@H](NC(=O)[C@H](CCCCN)NC(=O)[C@H](CCCCN)NC(=O)[C@H](Cc1ccccc1)NC(=O)[C@H](CC(C)C)NC(=O)[C@H](CCCCN)NC(=O)[C@H](Cc1c[nH]c2ccccc12)NCc1ccccc1)C(=O)N[C@@H](CC(C)C)C(=O)N[C@@H](CCCCN)C(=O)N[C@H](C(=O)N[C@@H](CC(C)C)C(N)=O)C(C)C (H-[X1]KLFKKILKVL-NH2)
output: 5

---

List of MIC values.
Test system: Pseudomonas syringae pv. syringae
Assay: Antibacterial activity against Pseudomonas syringae pv. syringae EPS94 after 48 hr by broth dilution method
Type: functional
Conditions: EPS94, 48 h
# unit: µM | format: bare number

H-WKLFKKILKVL-NH2: 7
Ac-WKLFKKILKVL-NH2: 7
H-WKLFKKILKFL-NH2: 5

input: Observed MIC on Pseudomonas syringae pv. syringae for H-LKLFKKILKVL-NH2 , please.
output: 5

input: Same lookup for H-WKLFKKILKWL-NH2 , please.
output: 5

---

Tested on: Erwinia amylovora
Assay: Antibacterial activity against Erwinia amylovora PMV6076 assessed as growth inhibition after 48 hr
Type: functional
Details: PMV6076, 48 h, read-out: ED50 (the source's name)
readoutName: pEC50
Scale: negative log10 of molar concentration, which is what pEC50 denotes.

input: Would you kindly share the measured pEC50 for CC[C@H](C)[C@H](NC(=O)[C@H](CCCCN)NC(=O)[C@H](CCCCN)NC(=O)[C@H](Cc1ccccc1)NC(=O)[C@H](CC(C)C)NC(=O)[C@H](CCCCN)NC(=O)[C@@H](N)Cc1c[nH]c2ccccc12)C(=O)N[C@@H](CC(C)C)C(=O)N[C@@H](CCCCN)C(=O)N[C@@H](Cc1ccc(O)cc1)C(=O)N[C@@H](CC(C)C)C(N)=O ?
output: 5.49

---

Listed next: entries and their corresponding HC50 at 1 h.
Experiment: Hemolytic activity against Homo sapiens (human) RBC assessed as hemoglobin release after 1 hr
Format: ADME, cell-based, Erythrocyte
Details: red blood cells, read-out: HD50
Lab book: enter the figure in µM, no units written.

input: Fill in: HC50 at 1 h of Ac-WKLFKKILKVL-NH2 is ___
output: 17

input: Further, for H-WKLFKKILKFL-NH2 ?
output: 32

---

System: Erwinia amylovora
Test: Antibacterial activity against Erwinia amylovora PMV6076 after 48 hr by broth dilution method
Assay type: functional
Details: PMV6076, 48 h
Where a SMILES comes first, the peptide text is derived from it. The star is where a group is joined. Palmitoyl = CCCCCCCCCCCCCCCC(=O)*; Bz = O=C(c1ccccc1)*
readoutName: MIC (µM)
Quick reminder: number only, in µM, skip the unit.

Take a look at these entries with their results.
CCCCCCCCCCCCCCCC(=O)N[C@@H](Cc1c[nH]c2ccccc12)C(=O)N[C@@H](CCCCN)C(=O)N[C@@H](CC(C)C)C(=O)N[C@@H](Cc1ccccc1)C(=O)N[C@@H](CCCCN)C(=O)N[C@@H](CCCCN)C(=O)N[C@H](C(=O)N[C@@H](CC(C)C)C(=O)N[C@@H](CCCCN)C(=O)N[C@H](C(=O)N[C@@H](CC(C)C)C(N)=O)C(C)C)[C@@H](C)CC (Palmitoyl-WKLFKKILKVL-NH2): 50
CC[C@H](C)[C@H](NC(=O)[C@H](CCCCN)NC(=O)[C@H](CCCCN)NC(=O)[C@H](Cc1ccccc1)NC(=O)[C@H](CC(C)C)NC(=O)[C@H](CCCCN)NC(=O)[C@H](Cc1c[nH]c2ccccc12)NC(=O)c1ccccc1)C(=O)N[C@@H](CC(C)C)C(=O)N[C@@H](CCCCN)C(=O)N[C@H](C(=O)N[C@@H](CC(C)C)C(N)=O)C(C)C (Bz-WKLFKKILKVL-NH2): 15

Next item in the queue.
input: Look up MIC: CC[C@H](C)[C@H](NC(=O)[C@H](CCCCN)NC(=O)[C@H](CCCCN)NC(=O)[C@H](Cc1ccccc1)NC(=O)[C@H](CC(C)C)NC(=O)[C@H](CCCCN)NC(=O)[C@@H](N)CCCCN)C(=O)N[C@@H](CC(C)C)C(=O)N[C@@H](CCCCN)C(=O)N[C@H](C(=O)N[C@@H](CC(C)C)C(N)=O)C(C)C [KKLFKKILKVL-NH2]
output: 5

---

System: Erwinia amylovora
Test: Antibacterial activity against Erwinia amylovora PMV6076 assessed as growth inhibition after 48 hr
Type: functional
Conditions: PMV6076, 48 h, read-out: ED50 (the source's name)
Where a SMILES comes first, the peptide text is derived from it. The star is where a group is joined. Palmitoyl = CCCCCCCCCCCCCCCC(=O)*
readoutName: EC50
Write down the value, and be sure its unit follows.

CC[C@H](C)[C@H](NC(=O)[C@H](CCCCN)NC(=O)[C@H](CCCCN)NC(=O)[C@H](Cc1ccccc1)NC(=O)[C@H](CC(C)C)NC(=O)[C@H](CCCCN)NC(=O)[C@@H](N)CCCCN)C(=O)N[C@@H](CC(C)C)C(=O)N[C@@H](CCCCN)C(=O)N[C@@H](Cc1ccccc1)C(=O)N[C@@H](CC(C)C)C(N)=O: 2.5 µM
CCCCCCCCCCCCCCCC(=O)N[C@@H](Cc1c[nH]c2ccccc12)C(=O)N[C@@H](CCCCN)C(=O)N[C@@H](CC(C)C)C(=O)N[C@@H](Cc1ccccc1)C(=O)N[C@@H](CCCCN)C(=O)N[C@@H](CCCCN)C(=O)N[C@H](C(=O)N[C@@H](CC(C)C)C(=O)N[C@@H](CCCCN)C(=O)N[C@H](C(=O)N[C@@H](CC(C)C)C(N)=O)C(C)C)[C@@H](C)CC (Palmitoyl-WKLFKKILKVL-NH2): 60 µM

Read the next record carefully.
input: What value of EC50 has been reported for the following compound? CC[C@H](C)[C@H](NC(=O)[C@H](CCCCN)NC(=O)[C@H](CCCCN)NC(=O)[C@H](Cc1ccccc1)NC(=O)[C@H](CC(C)C)NC(=O)[C@H](CCCCN)NC(=O)[C@@H](N)CCCCN)C(=O)N[C@@H](CC(C)C)C(=O)N[C@@H](CCCCN)C(=O)N[C@H](C(=O)N[C@@H](CC(C)C)C(N)=O)C(C)C
output: 4.3 µM
